Assay: PK analysis after intravenous administration in SD rats
Assay type: in vivo, rat
Conditions: male, rat, plasma, 10 mg/kg
quantity: Cmax (ng/mL)
Answers are plain numbers, in ng/mL.

Consider CNC(=O)CC1C(=O)NCCN1Cc1ccc(-c2ccccc2-c2cccc3c2CN(C)C3=O)o1 (stereo not shown) . Its measured Cmax is 2560

---

Biological target: BRD4 BD1 (Homo sapiens, UniProt O60885)
Construct: BRD3 BD2, BRD4 BD1, BRD4 BD2; biotin (biotinylated protein)
Assay: Biosensor binding kinetics assay (Octet), BRD4 BD1
quantity: Kd

Consider CNC(=O)CC1C(=O)NCCN1Cc1ccc(-c2ccccc2-c2cccc3c2CN(C)C3=O)o1 (stereo not shown) [NCD] . Its measured Kd is > 1000 nM
